ASSAY INFO: OD615 S. cerevisiae growth inhibition, permissive medium, pilot counter-assay, permissive growth control for S. cerevisiae lifespan shortening project (AID 705)
STATED CONDITIONS: OD615, 24 h, at 10 µM, active compounds read high
ASSAY METRIC: growth inhibition (%)

> print(dat)
                                    molecule  quantity.unit  data.value
 1  CC(C)n1c(C(O)c2ccccc2)nc2ccccc21 (stereo not drawn)              %       -5.87
 2                O=C(CSc1ncccn1)NCCc1ccccc1              %        -4.5
 3  C=CCn1c(=N)c(C(=O)NCCCOC)cc2c(=O)n3cccc(C)c3nc21              %        2.23
 4  CC(Oc1ccc(Cl)cc1Cl)C(=O)NCCCN1CCOCC1 (stereo not drawn)              %       -8.88
 5  O=C1CC(C(=O)N2CCN(c3ccc(F)cc3)CC2)CN1CCc1ccccc1 (stereo not drawn)              %       -1.65
 6  O=C(Nc1ccc(N2CCN(C(=O)c3ccccc3)CC2)c(Cl)c1)c1ccco1              %        4.29
 7  COc1ccc(NC(=O)C(CC(=O)O)Cc2ccccc2)cc1 (stereo not drawn)              %         -17
 8          COC(=O)CSc1nc2ccccc2nc1SCC(=O)OC              %       -11.7
 9  CCOC(=O)C1CCN(c2cc(=O)n(Cc3ccc(F)cc3)c(=O)[nH]2)CC1              %         -11
10  CC(=O)C1=C(C)N=c2s/c(=C/c3ccc4c(c3)OCO4)c(=O)n2C1c1ccc(N(C)C)cc1 (stereo not drawn)              %       -9.92
11  COc1ccc(-n2nnc3c(=O)n(CC(=O)N4CCCCC4)cnc32)cc1              %      -0.235
12     OCCN1CCN(Cc2cccc(Oc3ccc(Cl)cc3)c2)CC1              %       -4.24
13  Cc1noc(NS(=O)(=O)c2ccc(NC(=O)CSc3nc4c(cc3C#N)CCCC4)cc2)c1C              %        2.36
14  CCCOc1ccc2ccccc2c1/C=N/n1c(C)nnc1-n1nc(C)cc1C              %       -5.19
15  Cc1c(C)n(CC(O)CN2CCCCCC2)c2ccccc12 (stereo not drawn)              %       -14.9
16  CN1C(=O)CC(N2CCC(c3nc4ccccc4[nH]3)CC2)C1=O (stereo not drawn)              %       -11.7
17  Cn1c(=O)c2c(nc(CN3CCN(C(=O)c4ccco4)CC3)n2Cc2ccccc2F)n(C)c1=O              %       -1.06
18  CC(C)N(Cc1nc(-c2ccc(Cl)cc2)no1)C(=O)CCC1CCCC1              %       -13.1
19  CC(C)(C)C1CCc2c(sc(NC(=O)c3cc(C4CC4)on3)c2C#N)C1 (stereo not drawn)              %       -2.48
20       O=C(CSc1nnc(-c2ccccc2)o1)Nc1ccccc1F              %       -5.54
21  CC(C)C(NS(=O)(=O)c1ccc2c(c1)oc(=O)n2C)C(=O)N1CCN(C2CCCCC2)CC1 (stereo not drawn)              %       -2.87
22                CCSc1nnc(NC(=O)c2ccccc2)s1              %       -19.1
23        NC(=O)C1CCN(C(=O)c2cc3ccccn3n2)CC1              %        0.24
